System: human SMAD7 mRNA
Experiment: Antisense inhibition of human SMAD7 mRNA expression in Hep3B cells by 3-10-3 cEt gapmers, 10,000 nM, electroporation (Example 2)
Type: cell-based
Details: Hep3B cells, 10,000 nM antisense oligonucleotide, electroporation, approximately 24 hours, RT-PCR primer probe set RTS5062, relative to untreated control cells
Protocol: Antisense oligonucleotides were designed to target human SMAD7 mRNA and were tested for their effects on SMAD7 mRNA expression in vitro. […] After a treatment period of approximately 24 hours, RNA was isolated from the cells and SMAD7 mRNA levels were measured by quantitative real-time PCR. […] SMAD7 mRNA levels were adjusted according to total RNA content, as measured by RIBOGREEN®. […]
Strand notation (5' to 3'): a small letter for the sugar, then the base; units joined by * are phosphorothioate-linked, units joined directly phosphodiester-linked; [ ] holds rarer units or linkages, { } end groups; capitals alone tell only the bases. k = constrained ethyl (cEt); [5mC] = 5-methylcytosine; d = 2'-deoxy (DNA)
Tag: rule met if measured % Inhibition is not below 30%, rule not met if it is.

substance: 800051 (antisense k[5mC]*kA*kG*d[5mC]*dA*d[5mC]*dA*dT*d[5mC]*d[5mC]*dA*d[5mC]*d[5mC]*k[5mC]*kT*kT) [compound 800051]
group-label: rule not met

substance: 799897 (antisense kT*k[5mC]*kT*d[5mC]*dT*dT*dA*d[5mC]*d[5mC]*dT*d[5mC]*dA*d[5mC]*k[5mC]*k[5mC]*kA) [compound 799897]
group-label: rule not met

substance: 800017 (kT*kA*kA*dA*dA*d[5mC]*dA*dG*dT*dA*dT*dG*dT*kG*kT*kT; antisense) [compound 800017]
group-label: rule not met

substance: 798836 (kG*kT*k[5mC]*d[5mC]*dG*dA*dG*dG*d[5mC]*dA*dA*dA*dA*kG*k[5mC]*k[5mC]; antisense) [compound 798836]
group-label: rule met

substance: 800076 (antisense k[5mC]*kG*k[5mC]*dT*dT*d[5mC]*d[5mC]*d[5mC]*dT*dA*d[5mC]*dA*d[5mC]*kA*kG*kT) [compound 800076]
group-label: rule not met

substance: 798913 (k[5mC]*k[5mC]*k[5mC]*dT*d[5mC]*d[5mC]*dG*d[5mC]*dA*d[5mC]*dG*d[5mC]*dG*kG*k[5mC]*kT; antisense) [compound 798913]
group-label: rule not met

substance: 798876 (kG*kG*k[5mC]*d[5mC]*dG*d[5mC]*dT*dG*d[5mC]*dA*dG*dG*d[5mC]*kT*kG*kT; antisense) [compound 798876]
group-label: rule met

substance: 798928 (antisense kT*kA*kG*d[5mC]*dA*dG*d[5mC]*dA*dA*dA*dG*dT*dA*kG*kT*kT) [compound 798928]
group-label: rule not met

substance: 800070 (antisense k[5mC]*k[5mC]*kA*dT*dG*dG*d[5mC]*dG*dG*dA*dA*dG*dA*kT*kG*kG) [compound 800070]
group-label: rule not met

substance: 798837 (kG*k[5mC]*kT*dG*dT*d[5mC]*d[5mC]*dG*dA*dG*dG*d[5mC]*dA*kA*kA*kA; antisense) [compound 798837]
group-label: rule met

Exam item: Dear colleague, could you confirm whether 799898 (antisense kG*kT*k[5mC]*dT*d[5mC]*dT*dT*dA*d[5mC]*d[5mC]*dT*d[5mC]*dA*k[5mC]*k[5mC]*k[5mC]) [compound 799898] has % Inhibition at or above 30%?
Marked response: rule met

Exam item: Dear colleague, could you confirm whether 799872 (kA*kA*kG*dT*dT*dA*dA*dT*d[5mC]*dA*dT*dT*dA*k[5mC]*kT*kT; antisense) [compound 799872] has % Inhibition at or above 30%?
Marked response: rule not met

Exam item: Dear colleague, could you confirm whether 799853 (k[5mC]*k[5mC]*kA*dA*dG*dT*dG*dT*d[5mC]*d[5mC]*dA*dT*d[5mC]*kA*kA*kG; antisense) [compound 799853] has % Inhibition at or above 30%?
Marked response: rule met

Exam item: Dear colleague, could you confirm whether 799878 (kG*k[5mC]*k[5mC]*d[5mC]*d[5mC]*d[5mC]*d[5mC]*dT*d[5mC]*d[5mC]*d[5mC]*d[5mC]*dG*kT*kG*k[5mC]; antisense) [compound 799878] has % Inhibition at or above 30%?
Marked response: rule met

Exam item: Dear colleague, could you confirm whether 800078 (antisense kA*k[5mC]*k[5mC]*dT*dT*dA*dA*d[5mC]*dA*dA*dA*dG*d[5mC]*kT*kT*k[5mC]) [compound 800078] has % Inhibition at or above 30%?
Marked response: rule met

Exam item: Dear colleague, could you confirm whether 798821 (kA*kG*k[5mC]*d[5mC]*dT*d[5mC]*d[5mC]*d[5mC]*d[5mC]*dA*d[5mC]*dT*d[5mC]*kT*k[5mC]*kG; antisense) [compound 798821] has % Inhibition at or above 30%?
Marked response: rule met

Exam item: Dear colleague, could you confirm whether 798835 (k[5mC]*kG*kA*dG*dG*d[5mC]*dA*dA*dA*dA*dG*d[5mC]*d[5mC]*kA*kT*kT; antisense) [compound 798835] has % Inhibition at or above 30%?
Marked response: rule not met

Exam item: Dear colleague, could you confirm whether 800032 (kG*kA*kA*dT*dT*d[5mC]*d[5mC]*d[5mC]*d[5mC]*dG*d[5mC]*d[5mC]*dA*kT*kT*kT; antisense) [compound 800032] has % Inhibition at or above 30%?
Marked response: rule not met

Exam item: Dear colleague, could you confirm whether 798873 (kG*k[5mC]*kT*dG*dT*dA*d[5mC]*dG*d[5mC]*d[5mC]*dT*dT*d[5mC]*kT*k[5mC]*kG; antisense) [compound 798873] has % Inhibition at or above 30%?
Marked response: rule not met
